system: carrageenan-induced inflammation of paw; assay: Carrageenan-induced paw edema, rats; type: in vivo, Sprague Dawley male rats; conditions: 8 mg/kg x 2, I.P., Table 2;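 also: paw weight increase as percent of control rats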
Give Rat Inflammatory for every item shown.

For orientation, consider the following solved cases.
>>> result("[BH3-][NH+]1CCOCC1")
"83 % of control"
>>> result("O=C(O)[BH2-][n+]1ccccc1")
"77 % of control"
>>> result("COC(=O)[BH2-][NH+](C)C")
"59 % of control"
>>> result("COc1ccc2c(c1)c(CC(=O)O)c(C)n2C(=O)c1ccc(Cl)cc1 [Indomethacin, indomethacin, reference compound]")
"78 % of control"
>>> result("C[N+](C)(C)[BH2-]C#N")
"65 % of control"
>>> result("CCCCC1C(=O)N(c2ccccc2)N(c2ccccc2)C1=O [Phenylbutazone, phenylbutazone, reference compound]")
"47 % of control"

Count: 3. Required value per item: Rat Inflammatory.
1. O=C(O)[BH2-][P+](c1ccccc1)(c1ccccc1)c1ccccc1
2. N#C[BH2-][P+](c1ccccc1)(c1ccccc1)c1ccccc1
3. CC[NH2+][BH2-]C(=O)O

Response line:
["61 % of control", "78 % of control", "59 % of control"]
